Data origin: patent US9108921B2

Record form. Attribute: AC50. Fill in for each entry.
# study-target: PKR R532W (Homo sapiens, UniProt P30613, R532W)
# Sequence (P30613 whole entry R532W): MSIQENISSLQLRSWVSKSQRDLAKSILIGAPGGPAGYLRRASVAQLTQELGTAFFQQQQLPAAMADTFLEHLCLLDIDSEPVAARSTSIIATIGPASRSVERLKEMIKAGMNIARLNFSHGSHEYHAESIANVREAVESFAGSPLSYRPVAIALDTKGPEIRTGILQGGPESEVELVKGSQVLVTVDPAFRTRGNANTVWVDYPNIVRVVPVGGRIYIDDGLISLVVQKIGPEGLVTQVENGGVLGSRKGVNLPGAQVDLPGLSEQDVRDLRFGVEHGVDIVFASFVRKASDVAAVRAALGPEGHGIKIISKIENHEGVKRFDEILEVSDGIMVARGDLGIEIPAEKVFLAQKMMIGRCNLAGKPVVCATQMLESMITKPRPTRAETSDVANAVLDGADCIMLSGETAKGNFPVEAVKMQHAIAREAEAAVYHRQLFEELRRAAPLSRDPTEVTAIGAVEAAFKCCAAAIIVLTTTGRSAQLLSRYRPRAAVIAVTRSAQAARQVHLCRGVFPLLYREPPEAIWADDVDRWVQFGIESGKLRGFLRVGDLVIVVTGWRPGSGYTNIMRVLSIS
# assay-notes: PKR Mutant Assay, AC50 against PKR R532W
# Type: biochemical
# run-parameters: mutant PKR R532W enzyme

Param readout = AC50; param system = PKR R532W (Homo sapiens, UniProt P30613, R532W); param query = `O=C(c1ccc(NS(=O)(=O)c2cccc3cccnc23)cn1)N1CCC(O)(c2ccccc2)CC1` ; response: value
1010 to 10000 nM

Param readout = AC50; param system = PKR R532W (Homo sapiens, UniProt P30613, R532W); param query = `O=C(c1ccc(NS(=O)(=O)c2cc(F)cc3cccnc23)cc1)N1CCC(O)(c2ccccc2Cl)CC1` ; response: value
< 100 nM

Param readout = AC50; param system = PKR R532W (Homo sapiens, UniProt P30613, R532W); param query = `COc1ncccc1C1(O)CCN(C(=O)c2ccc(NS(=O)(=O)c3cccc4cccnc34)cc2)CC1` ; response: value
< 100 nM

Param readout = AC50; param system = PKR R532W (Homo sapiens, UniProt P30613, R532W); param query = `O=C(c1ccc(NS(=O)(=O)c2ccc(F)c3cccnc23)cc1)N1CCC(O)(CC2CCC2)CC1` ; response: value
< 100 nM

Param readout = AC50; param system = PKR R532W (Homo sapiens, UniProt P30613, R532W); param query = `CC(F)(F)CC1(O)CCN(C(=O)c2ccc(NS(=O)(=O)c3cccc4scnc34)cc2)CC1` ; response: value
101 to 1000 nM

Param readout = AC50; param system = PKR R532W (Homo sapiens, UniProt P30613, R532W); param query = `CC(C)CC1(O)CCN(C(=O)c2ccc(NS(=O)(=O)c3cccc(O)c3N)cc2)CC1` ; response: value
101 to 1000 nM

Param readout = AC50; param system = PKR R532W (Homo sapiens, UniProt P30613, R532W); param query = `O=C(c1ccc(NS(=O)(=O)c2cccc3cccnc23)cc1Cl)N1CCC(O)(c2ccccc2Cl)CC1` ; response: value
< 100 nM

====

Record form. Attribute: AC50. Fill in for each entry.
# study-target: PKR R532W (Homo sapiens, UniProt P30613, R532W)
# assay-notes: PKR Mutant Assay, AC50 against PKR R532W
# Assay type: biochemical
# run-parameters: mutant PKR R532W enzyme

Using the record for `O=C(c1ccc(NS(=O)(=O)c2cccc3cccnc23)cc1)N1CCC(O)(c2ccc(F)c(Br)n2)CC1` , report its AC50.
< 100 nM

Using the record for `O=C(c1ccc(NS(=O)(=O)c2cccc3cccnc23)cc1)N1CCC(O)(Cc2ccccc2)CC1` , report its AC50.
< 100 nM

Using the record for `CCCC1(O)CCN(C(=O)c2ccc(NS(=O)(=O)c3cccc4cccnc34)cc2)CC1` , report its AC50.
< 100 nM

Using the record for `CC(C)CC1(O)CCN(C(=O)c2ccc(NS(=O)(=O)c3cccc4cncnc34)cc2)CC1` , report its AC50.
101 to 1000 nM

====

# study-target: PKR WT (Homo sapiens)
# Sequence (P30613 whole entry): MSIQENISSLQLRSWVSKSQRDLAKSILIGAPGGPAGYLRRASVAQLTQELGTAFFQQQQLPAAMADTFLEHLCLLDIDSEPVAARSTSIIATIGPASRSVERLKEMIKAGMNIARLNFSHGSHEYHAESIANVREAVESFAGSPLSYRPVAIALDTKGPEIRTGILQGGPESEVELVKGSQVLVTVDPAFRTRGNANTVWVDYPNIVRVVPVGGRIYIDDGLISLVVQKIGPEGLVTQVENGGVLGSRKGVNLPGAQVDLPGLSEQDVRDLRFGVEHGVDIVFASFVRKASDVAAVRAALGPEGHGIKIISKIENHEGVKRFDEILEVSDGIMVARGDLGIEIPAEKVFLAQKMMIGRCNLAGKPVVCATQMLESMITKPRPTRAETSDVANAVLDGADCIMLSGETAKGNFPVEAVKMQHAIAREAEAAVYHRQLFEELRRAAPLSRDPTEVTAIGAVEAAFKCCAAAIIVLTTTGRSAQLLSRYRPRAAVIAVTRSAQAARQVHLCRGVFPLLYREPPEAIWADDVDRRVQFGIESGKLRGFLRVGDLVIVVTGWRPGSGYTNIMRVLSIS
# assay-notes: PKR WT enzymatic AC50 assay
# Type: biochemical
# run-parameters: wild type PKR
# Method: • PKR or PKR mutant enzyme solution was diluted in assay buffer. • 2 μL of test compound was added into wells first, and then 180 μL reaction mix was added. • Reactions mixture with test compound was assembled except for ADP, and plates were stored for 60 minutes at room temperature. • 20 uL ADP was added to start reaction at room temperature and reaction progress was measured as changes in absorbance at 340 nm wavelength at room temperature. […]
Record form. Attribute: AC50. Fill in for each entry.

Using the record for `O=C(c1ccc(NS(=O)(=O)c2cccc3ccoc23)cc1)N1CCC(O)(c2ccccc2Cl)CC1` , report its AC50.
< 100 nM

Using the record for `O=C(c1ccc(NS(=O)(=O)c2cccc3cccnc23)c(Cl)c1)N1CCC(O)(c2ccccc2Cl)CC1` , report its AC50.
< 100 nM

Using the record for `O=C(c1ccc(NS(=O)(=O)c2ccc(F)c3cccnc23)cc1)N1CCC(O)(c2ccccc2Cl)CC1` , report its AC50.
< 100 nM

Using the record for `CC(C)(C)CC1(O)CCN(C(=O)c2ccc(NS(=O)(=O)c3ccc(F)c4cccnc34)cc2)CC1` , report its AC50.
< 100 nM

Using the record for `O=C(c1ccc(NS(=O)(=O)c2cccc3scnc23)cc1)N1CCC(O)(c2cccc(F)c2F)CC1` , report its AC50.
< 100 nM

Using the record for `O=C(c1ccc(NS(=O)(=O)c2cccc3cccnc23)nc1)N1CCC(O)(c2ccccc2)CC1` , report its AC50.
1010 to 10000 nM

Using the record for `CC(C)CC1(O)CCN(C(=O)c2ccc(NS(=O)(=O)c3cccc4ncc(N)nc34)cc2)CC1` , report its AC50.
< 100 nM

Using the record for `O=C(c1ccc(NS(=O)(=O)c2cccc3scnc23)cc1)N1CCC(O)(c2cn[nH]c2)CC1` , report its AC50.
101 to 1000 nM

Using the record for `CC(C)CC1(O)CCN(C(=O)c2ccc(NS(=O)(=O)c3ccc(F)c(N)c3N)cc2)CC1` , report its AC50.
101 to 1000 nM

Using the record for `O=C(c1ccc(NS(=O)(=O)n2ccc3cccnc32)cc1)N1CCC(O)(c2ccccc2Cl)CC1` , report its AC50.
> 10000 nM

Using the record for `Cc1cc(C(=O)N2CCC(O)(c3ccccc3Cl)CC2)ccc1NS(=O)(=O)c1cccc2cccnc12` , report its AC50.
< 100 nM

Using the record for `O=C(c1ccc(NS(=O)(=O)c2cccc3cccnc23)c(F)c1)N1CCC(O)(Cc2ccccc2)CC1` , report its AC50.
< 100 nM

Using the record for `O=C(c1ccc(NS(=O)(=O)c2cccc3cccnc23)cc1)N1CCC(O)(Cc2c(F)cccc2F)CC1` , report its AC50.
< 100 nM

Using the record for `C=C(CC1(O)CCN(C(=O)c2ccc(NS(=O)(=O)c3cccc4scnc34)cc2)CC1)C(F)(F)F` , report its AC50.
< 100 nM

Using the record for `O=C(c1ccc(NS(=O)(=O)c2cccc3nccnc23)c(F)c1)N1CCC(O)(c2ccccc2Cl)CC1` , report its AC50.
101 to 1000 nM

Using the record for `O=C(c1ccc(NS(=O)(=O)c2cccc3cccnc23)cc1)N1CCC(O)(c2cccc(F)n2)CC1` , report its AC50.
101 to 1000 nM

Using the record for `O=C(c1ccc(NS(=O)(=O)c2cccc3cccnc23)cc1)N1CCC(O)(c2ncccc2Cl)CC1` , report its AC50.
< 100 nM

Using the record for `CC(C)CC1(O)CCN(C(=O)c2ccc(NS(=O)(=O)c3cccn4ccnc34)cc2)CC1` , report its AC50.
1010 to 10000 nM

Using the record for `O=C(c1ccc(NS(=O)(=O)c2ccc3c(c2)OCO3)cc1)N1CCC(O)(Cc2ccccc2)CC1` , report its AC50.
101 to 1000 nM

Using the record for CC(C)CC1(O)CCN(C(=O)c2ccc(NS(=O)(=O)c3ccc(F)c4scnc34)cc2)CC1 [Compound 372] , report its AC50.
101 to 1000 nM

Using the record for `O=C(c1ccc(NS(=O)(=O)c2cccc3cccnc23)cc1)N1CCC(O)(Cc2cccc(C(F)(F)F)c2)CC1` , report its AC50.
< 100 nM

Using the record for `Cc1nc(F)ccc1C1(O)CCN(C(=O)c2ccc(NS(=O)(=O)c3ccc(F)c4cccnc34)cc2)CC1` , report its AC50.
101 to 1000 nM

Using the record for `O=C(c1ccc(NS(=O)(=O)c2ccc(F)c3cccnc23)cc1)N1CCC(O)(CC2CCC2)CC1` , report its AC50.
< 100 nM

Using the record for `O=C(c1ccc(NS(=O)(=O)c2cccc3c2OCCC3)cc1)N1CCC(O)(c2ccccc2Cl)CC1` , report its AC50.
< 100 nM

Using the record for `O=C(c1ccc(NS(=O)(=O)c2cccc3cccnc23)cc1)N1CCC(O)(c2cccnc2C(F)(F)F)CC1` , report its AC50.
< 100 nM

Using the record for `O=C(c1ccc(NS(=O)(=O)c2cc(F)cc3cccnc23)cc1)N1CCC(O)(c2ccccc2Cl)CC1` , report its AC50.
< 100 nM

Using the record for `O=C(c1ccc(NS(=O)(=O)c2cccc3scnc23)cc1)N1CCC(O)(c2ccccc2C(F)F)CC1` , report its AC50.
< 100 nM

Using the record for `CC(C)CC1(CO)CCN(C(=O)c2ccc(NS(=O)(=O)c3cccc4scnc34)cc2)CC1` , report its AC50.
< 100 nM

Using the record for `O=C(c1ccc(NS(=O)(=O)c2cccc3cccnc23)cc1)N1CCC(O)(c2ccc(F)cc2)CC1` , report its AC50.
< 100 nM

Using the record for `CC(C)CC1(O)CCN(C(=O)c2ccc(NS(=O)(=O)c3cccc4cccnc34)cc2)CC1` , report its AC50.
< 100 nM
